# assay_target: HLA-A*0202 (human)
# assay_details: competition with 125I-labelled standard peptide on purified HLA, gel filtration
# details: remark: other sources report otherwise
quantity: log10 IC50 (log10 of the value in nM)
Hi team, quick reminder: these entries are log10 of IC50 (nM).

Sample answers from the record:
binder | quantity | readout_value
VLAKELKFVTL (modifications not checked) [peptide 63.0142 … (PAP.30)] | log10 IC50 | 0.91
LLFFWLDRSV (modifications not checked) [peptide 1097.09 … (PAP.21)] | log10 IC50 | -0.22

The binder identified as LLARAASLSV (modifications not checked) [peptide 63.0031 … (PAP.7.V10)] registered its log10 IC50 at 1.00

The binder identified as FLFLLFFWV (modifications not checked) [peptide 60.0203 … (PAP.18.V9)] registered its log10 IC50 at 2.49

The binder identified as LLARAASLSL (modifications not checked) [peptide 20.0203 … (PAP.7)] registered its log10 IC50 at 0.72
